SYSTEM NAME: Platelet-activating factor acetylhydrolase IB subunit alpha2 (Homo sapiens) (UniProt P68402)
Sequence (P68402 whole entry, looked up): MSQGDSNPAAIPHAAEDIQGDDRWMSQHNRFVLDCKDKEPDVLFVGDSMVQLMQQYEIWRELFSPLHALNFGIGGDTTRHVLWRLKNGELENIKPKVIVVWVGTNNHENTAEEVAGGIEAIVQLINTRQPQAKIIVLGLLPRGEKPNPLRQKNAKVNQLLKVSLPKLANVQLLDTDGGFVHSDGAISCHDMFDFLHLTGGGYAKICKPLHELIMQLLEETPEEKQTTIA
PROTOCOL DETAILS: inhibition of human PAFAH1B2 catalytic subunit – biochemical, fluorescence polarization, FP-rhodamine probe, triplicate, confirmation (AID 493034);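 note: 0% = enzyme with DMSO and 100% = wells lacking PAFAH1B2 protein; inhibitors lower polarization by leaving the probe unbound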
MEASUREMENT CONTEXT: recombinant PAFAH1B2, FP-rhodamine probe fluorescence polarization; at 3.39 µM; hits give high values
About 2,200 (92%) of roughly 2,400 compounds were called active. So high a share suggests a set chosen from earlier hits. The list shows a part of the results.
So I've got a bunch of compounds here, and I need their inhibition values.
Quick note: give the figure in %, leave out the unit.

Incoming: What value of inhibition has been recorded for this entry: O=C(N/N=C/c1cc([N+](=O)[O-])ccc1O)NC12CC3CC(CC(C3)C1)C2
Outgoing: 79.6

Incoming: Record: Cc1ccc(NC(=O)CN(C)C(=O)c2ccc3[nH]c4c(c3c2)CC(C)CC4)cc1 (stereo not given)
Outgoing: 47.5

Incoming: Record: Cc1ccc(C)c(NC(=O)CN(C)C(=O)c2ccc3[nH]c4c(c3c2)CC(C)CC4)c1 (stereo not given)
Outgoing: 29.8

Incoming: Record: O=[N+]([O-])c1cc(-c2cnc3ccccc3n2)ccc1Oc1ccc(Br)cc1
Outgoing: 51.6

Incoming: Record: Cc1occc1C(=O)O/N=C(\N)c1ccc(Cl)cc1
Outgoing: 27.4

Incoming: Record: C=CCn1c(-c2cccn(Cc3ccc(Cl)cc3)c2=O)n[nH]c1=S
Outgoing: 22.8

Incoming: Record: S=c1[nH]nc(-c2ccc(Cl)cc2)n1Cc1ccccc1
Outgoing: 32

Incoming: Record: O=C(N/N=C/c1cc([N+](=O)[O-])ccc1O)Nc1ccccc1
Outgoing: 16.1

Incoming: Record: O=C(Nc1nc2ccc(S(=O)(=O)N3CCCCC3)cc2s1)c1ccncc1
Outgoing: 20.7

Incoming: Record: S=c1[nH]nc(Cc2ccc(Br)cc2)n1/N=C/c1ccc(Cl)cc1
Outgoing: 20
